From: the supplement of paper PMC13380429

Below: a set of entries, each annotated with reported relative viability EC50.
# Tested on: Caco-2
# test_method_notes: relative viability EC50 (midpoint between 100% and the lowest measured viability); higher = less toxic
# test_context: 72 h

Consider the reported relative viability EC50 for these compounds:
{"columns": ["compound", "result"],
 "data": [
  ["COc1ccc(/C=C/C(=O)O)cc1 [trans-4-methoxycinnamic-acid]", "> 10 µM"],
  ["Brc1c(Br)c(Br)c2[nH]nnc2c1Br", "> 10 µM"],
  ["Cc1c(S(=O)(=O)O)oc2c1C(=O)C(=O)c1c-2ccc2c1CCCC2(C)C [sodium-tanshinone-II-A-sulfonate]", "> 10 µM"],
  ["OC1(c2ccc(Cl)c(C(F)(F)F)c2)CCN(CCCC(c2ccc(F)cc2)c2ccc(F)cc2)CC1", "1.83 µM"],
  ["CC1(C)O[C@@H]2C[C@H]3[C@@H]4CCC5=CC(=O)C=C[C@]5(C)[C@H]4[C@@H](O)C[C@]3(C)[C@]2(C(=O)CO)O1 [desonide]", "> 10 µM"],
  ["CC1(C)Oc2ccc(C#N)cc2[C@H](N(Cc2ncc[nH]2)c2ccc(Cl)cc2)[C@H]1O", "> 10 µM"],
  ["Cc1cccc(CN2CCN(C(c3ccccc3)c3ccc(Cl)cc3)CC2)c1 (stereo not given)", "> 10 µM"],
  ["CC[C@H](C)[C@H](N)C1=N[C@H](C(=O)N[C@@H](CC(C)C)C(=O)N[C@H](CCC(=O)O)C(=O)N[C@H](C(=O)N[C@H]2CCCCNC(=O)[C@H](CC(N)=O)NC(=O)[C@@H](CC(=O)O)NC(=O)[C@H](Cc3cnc[nH]3)NC(=O)[C@@H](Cc3ccccc3)NC(=O)[C@H]([C@@H](C)CC)NC(=O)[C@@H](CCCN)NC2=O)[C@@H](C)CC)CS1", "> 10 µM"],
  ["CCOC(=O)Nc1ccc2c(c1)N(C(=O)CCN1CCOCC1)c1ccccc1S2", "> 10 µM"],
  ["Cc1nc2ccccn2c(=O)c1CCN1CCC(C(=O)c2ccc(F)cc2)CC1", "> 10 µM"]
]}

--- query ---
Annotate the compound `O=c1[nH]cnc2c1ncn2[C@H]1CC[C@@H](CO)O1` with its measured relative viability EC50.
> 10 µM
